- target-desc: aminopeptidase N (APN), purified recombinant human enzyme (Homo sapiens)
- Sequence (P15144 whole entry): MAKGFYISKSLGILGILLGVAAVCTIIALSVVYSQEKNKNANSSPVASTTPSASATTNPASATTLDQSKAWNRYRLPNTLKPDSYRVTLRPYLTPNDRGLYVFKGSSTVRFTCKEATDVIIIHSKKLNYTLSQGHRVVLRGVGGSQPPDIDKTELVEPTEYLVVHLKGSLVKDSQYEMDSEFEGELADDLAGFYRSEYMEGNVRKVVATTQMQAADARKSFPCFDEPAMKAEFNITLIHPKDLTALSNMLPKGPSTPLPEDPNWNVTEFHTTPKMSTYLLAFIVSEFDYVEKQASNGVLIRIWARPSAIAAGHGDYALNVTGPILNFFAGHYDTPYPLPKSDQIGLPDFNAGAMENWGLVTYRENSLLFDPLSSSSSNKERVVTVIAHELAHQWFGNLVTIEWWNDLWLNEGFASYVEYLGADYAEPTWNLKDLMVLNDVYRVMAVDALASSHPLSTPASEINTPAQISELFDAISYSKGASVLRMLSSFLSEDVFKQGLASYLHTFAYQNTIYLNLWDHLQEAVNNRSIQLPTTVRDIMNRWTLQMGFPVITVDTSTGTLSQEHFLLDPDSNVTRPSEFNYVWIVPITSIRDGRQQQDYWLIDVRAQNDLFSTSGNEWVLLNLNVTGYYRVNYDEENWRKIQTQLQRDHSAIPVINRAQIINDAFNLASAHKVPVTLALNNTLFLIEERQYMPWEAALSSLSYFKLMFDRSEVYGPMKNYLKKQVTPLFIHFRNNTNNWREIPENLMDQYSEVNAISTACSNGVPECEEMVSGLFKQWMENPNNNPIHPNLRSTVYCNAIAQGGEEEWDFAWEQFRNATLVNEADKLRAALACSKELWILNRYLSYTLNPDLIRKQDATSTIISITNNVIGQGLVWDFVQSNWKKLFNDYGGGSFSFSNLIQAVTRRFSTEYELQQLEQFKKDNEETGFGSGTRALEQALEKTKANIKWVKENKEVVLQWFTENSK
- method-description: Inhibition of enzymatic activity of aminopeptidase N (fluorogenic substrate hydrolysis)
- measurement-setup: highest test item concentration 25 μM, read-out: meas. IC50 (APN)
pIC50: −log10 of the molar value.
outcome-measure: pIC50

// known answers, use as guide
| compound | target-desc | outcome-measure | endpoint-result |
| --- | --- | --- | --- |
| CC(C)(CNC(=O)CC(N)Cc1cc(F)ccc1F)CNC(=O)C(O)C(N)CO (centres unmarked) | aminopeptidase N (APN), purified recombinant human enzyme (Homo sapiens) | pIC50 | 6.04 |
| NC(CNS(=O)(=O)CCCNC(=O)C(O)C(N)Cc1ccccc1)Cc1cc(F)ccc1F (centres unmarked) | aminopeptidase N (APN), purified recombinant human enzyme (Homo sapiens) | pIC50 | 7.15 |

(I) CCOC(=O)NC(CC(=O)NCC(C)(C)CNC(=O)C(O)C(COCc1ccccc1)NC(=O)OCC)Cc1cc(F)ccc1F (centres unmarked)
(II) NC(CNC(=O)CCCNC(=O)C(O)C(N)Cc1ccccc1)Cc1cc(F)ccc1F (centres unmarked) [Compound C26.008]
(III) NC(CNC(=O)CCCNC(=O)C(O)C(N)Cc1ccccc1)Cc1cc(F)ccc1F (centres unmarked) [Compound C26.005]
(IV) CC(C)NC(CC(=O)NCC(C)(C)CNC(=O)C(O)C(N)COCc1ccccc1)Cc1cc(F)ccc1F (centres unmarked)
Prompt: Put these in order: smallest pIC50 first, largest last. A complete answer lists every label in the requested sequence.
Completion: I, IV, III, II
(I: 5.23, IV: 6.23, III: 7.05, II: 8.00)

Value source: patent US20120028995A1
